Exercise: state measured Met Kinase % Inhibition (P.130) for each of the molecules provided.
assayed_target: Met receptor (EGFR/Met chimeric cells, EMR) (Homo sapiens)
Construct: expressed in transfected cells; the other entry of the earlier key: EGFR (P00533, Epidermal growth factor receptor)
Sequence (P08581 with tags, fused parts or gaps): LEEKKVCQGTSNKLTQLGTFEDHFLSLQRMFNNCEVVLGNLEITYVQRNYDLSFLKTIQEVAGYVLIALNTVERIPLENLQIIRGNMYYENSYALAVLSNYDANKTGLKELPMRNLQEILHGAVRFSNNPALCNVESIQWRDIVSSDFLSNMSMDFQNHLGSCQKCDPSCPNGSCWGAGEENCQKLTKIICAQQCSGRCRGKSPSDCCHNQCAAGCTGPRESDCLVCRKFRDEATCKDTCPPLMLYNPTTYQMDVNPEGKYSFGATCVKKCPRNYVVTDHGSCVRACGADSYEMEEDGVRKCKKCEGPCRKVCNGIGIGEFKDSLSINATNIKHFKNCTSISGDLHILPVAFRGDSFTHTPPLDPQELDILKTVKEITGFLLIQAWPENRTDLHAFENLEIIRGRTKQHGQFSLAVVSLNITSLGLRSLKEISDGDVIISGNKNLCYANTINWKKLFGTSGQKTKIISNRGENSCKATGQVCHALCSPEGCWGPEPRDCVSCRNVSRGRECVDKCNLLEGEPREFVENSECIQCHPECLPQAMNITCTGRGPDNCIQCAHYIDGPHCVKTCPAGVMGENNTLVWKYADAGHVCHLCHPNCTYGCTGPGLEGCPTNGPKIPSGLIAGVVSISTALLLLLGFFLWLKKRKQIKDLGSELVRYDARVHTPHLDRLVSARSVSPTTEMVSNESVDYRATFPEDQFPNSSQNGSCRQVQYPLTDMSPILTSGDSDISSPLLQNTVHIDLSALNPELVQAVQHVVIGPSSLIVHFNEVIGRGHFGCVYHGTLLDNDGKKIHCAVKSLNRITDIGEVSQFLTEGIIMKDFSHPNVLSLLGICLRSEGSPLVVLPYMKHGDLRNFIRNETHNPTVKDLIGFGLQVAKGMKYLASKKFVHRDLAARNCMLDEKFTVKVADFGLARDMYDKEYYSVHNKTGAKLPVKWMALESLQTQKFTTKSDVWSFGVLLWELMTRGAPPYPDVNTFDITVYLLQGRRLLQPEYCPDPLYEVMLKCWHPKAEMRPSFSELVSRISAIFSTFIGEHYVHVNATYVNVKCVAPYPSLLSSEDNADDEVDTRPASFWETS
protocol_notes: Met Autophosphorylation Assay; note: test concentration or dose not given here
Type: biochemical
Please give a number only; it is taken to be in %.

Return Met Kinase % Inhibition (P.130) measured with Met receptor (EGFR/Met chimeric cells, EMR) (Homo sapiens) given this molecule: `Cc1c(Br)ccc2c1C(=Cc1cc(Cl)ccc1O)C(=O)N2`
90.7

Return Met Kinase % Inhibition (P.130) measured with Met receptor (EGFR/Met chimeric cells, EMR) (Homo sapiens) given this molecule: `COc1ccc(Br)c(C=C2C(=O)Nc3c(Br)cc(Br)c(C)c32)c1O`
58.3

Return Met Kinase % Inhibition (P.130) measured with Met receptor (EGFR/Met chimeric cells, EMR) (Homo sapiens) given this molecule: `Cc1c(Br)cc(Br)c2c1C(=Cc1ccc(O)c(O)c1)C(=O)N2`
67.0

Return Met Kinase % Inhibition (P.130) measured with Met receptor (EGFR/Met chimeric cells, EMR) (Homo sapiens) given this molecule: `CCN(CC)c1ccc(C=C2C(=O)Nc3ccc(CCCl)cc32)c(O)c1`
57.7

Return Met Kinase % Inhibition (P.130) measured with Met receptor (EGFR/Met chimeric cells, EMR) (Homo sapiens) given this molecule: `Cc1c(Br)cc(Br)c2c1C(=Cc1cc(C(C)C)c(Oc3ccccc3)c(C(C)C)c1)C(=O)N2`
57.6

Return Met Kinase % Inhibition (P.130) measured with Met receptor (EGFR/Met chimeric cells, EMR) (Homo sapiens) given this molecule: `O=C1Nc2ccc(I)cc2C1=Cc1ccc(O)c(Br)c1`
94.3

Return Met Kinase % Inhibition (P.130) measured with Met receptor (EGFR/Met chimeric cells, EMR) (Homo sapiens) given this molecule: `Cc1c(Br)cc(Br)c2c1C(=Cc1ccc(O)c(Br)c1)C(=O)N2`
78.4

Return Met Kinase % Inhibition (P.130) measured with Met receptor (EGFR/Met chimeric cells, EMR) (Homo sapiens) given this molecule: `Cc1c(Br)cc(Br)c2c1C(=Cc1ccc(N3CCN(C=O)CC3)cc1)C(=O)N2`
14.2

Return Met Kinase % Inhibition (P.130) measured with Met receptor (EGFR/Met chimeric cells, EMR) (Homo sapiens) given this molecule: `O=C1Nc2ccc(S(=O)(=O)Nc3ccc(C(F)(F)F)cc3)cc2C1=Cc1cccc(F)c1`
45.9

Return Met Kinase % Inhibition (P.130) measured with Met receptor (EGFR/Met chimeric cells, EMR) (Homo sapiens) given this molecule: `O=C1Nc2c(Br)cc(Br)cc2C1=Cc1cc(Br)cc(Br)c1O`
89.3

Return Met Kinase % Inhibition (P.130) measured with Met receptor (EGFR/Met chimeric cells, EMR) (Homo sapiens) given this molecule: `O=C1Nc2ccc(S(=O)(=O)N3CCOCC3)cc2C1=Cc1ccc([N+](=O)[O-])cc1`
64.2

Return Met Kinase % Inhibition (P.130) measured with Met receptor (EGFR/Met chimeric cells, EMR) (Homo sapiens) given this molecule: `CCN(CC)c1ccc(C=C2C(=O)Nc3ccc(S(=O)(=O)N4CCOCC4)cc32)c(O)c1`
73.8

Return Met Kinase % Inhibition (P.130) measured with Met receptor (EGFR/Met chimeric cells, EMR) (Homo sapiens) given this molecule: `Cc1c(Br)cc(Br)c2c1C(=Cc1c(Br)cnn1-c1ccc(Cl)cc1)C(=O)N2`
21.8

Return Met Kinase % Inhibition (P.130) measured with Met receptor (EGFR/Met chimeric cells, EMR) (Homo sapiens) given this molecule: `Cc1c(Br)cc(Br)c2c1C(=Cc1cc([N+](=O)[O-])cc(CCl)c1O)C(=O)N2`
90.3

Return Met Kinase % Inhibition (P.130) measured with Met receptor (EGFR/Met chimeric cells, EMR) (Homo sapiens) given this molecule: `CNS(=O)(=O)c1ccc2c(c1)C(=Cc1cccc(Cl)c1)C(=O)N2`
14.7

Return Met Kinase % Inhibition (P.130) measured with Met receptor (EGFR/Met chimeric cells, EMR) (Homo sapiens) given this molecule: `Cc1c(Br)cc(Br)c2c1C(=Cc1ccc(O)c([N+](=O)[O-])c1)C(=O)N2`
26.1
